biological target: UniProt P29477; assay: NOS activity: LPS-induced NO production in murine microglial cells (BV2)
Sequence (P29477 whole entry): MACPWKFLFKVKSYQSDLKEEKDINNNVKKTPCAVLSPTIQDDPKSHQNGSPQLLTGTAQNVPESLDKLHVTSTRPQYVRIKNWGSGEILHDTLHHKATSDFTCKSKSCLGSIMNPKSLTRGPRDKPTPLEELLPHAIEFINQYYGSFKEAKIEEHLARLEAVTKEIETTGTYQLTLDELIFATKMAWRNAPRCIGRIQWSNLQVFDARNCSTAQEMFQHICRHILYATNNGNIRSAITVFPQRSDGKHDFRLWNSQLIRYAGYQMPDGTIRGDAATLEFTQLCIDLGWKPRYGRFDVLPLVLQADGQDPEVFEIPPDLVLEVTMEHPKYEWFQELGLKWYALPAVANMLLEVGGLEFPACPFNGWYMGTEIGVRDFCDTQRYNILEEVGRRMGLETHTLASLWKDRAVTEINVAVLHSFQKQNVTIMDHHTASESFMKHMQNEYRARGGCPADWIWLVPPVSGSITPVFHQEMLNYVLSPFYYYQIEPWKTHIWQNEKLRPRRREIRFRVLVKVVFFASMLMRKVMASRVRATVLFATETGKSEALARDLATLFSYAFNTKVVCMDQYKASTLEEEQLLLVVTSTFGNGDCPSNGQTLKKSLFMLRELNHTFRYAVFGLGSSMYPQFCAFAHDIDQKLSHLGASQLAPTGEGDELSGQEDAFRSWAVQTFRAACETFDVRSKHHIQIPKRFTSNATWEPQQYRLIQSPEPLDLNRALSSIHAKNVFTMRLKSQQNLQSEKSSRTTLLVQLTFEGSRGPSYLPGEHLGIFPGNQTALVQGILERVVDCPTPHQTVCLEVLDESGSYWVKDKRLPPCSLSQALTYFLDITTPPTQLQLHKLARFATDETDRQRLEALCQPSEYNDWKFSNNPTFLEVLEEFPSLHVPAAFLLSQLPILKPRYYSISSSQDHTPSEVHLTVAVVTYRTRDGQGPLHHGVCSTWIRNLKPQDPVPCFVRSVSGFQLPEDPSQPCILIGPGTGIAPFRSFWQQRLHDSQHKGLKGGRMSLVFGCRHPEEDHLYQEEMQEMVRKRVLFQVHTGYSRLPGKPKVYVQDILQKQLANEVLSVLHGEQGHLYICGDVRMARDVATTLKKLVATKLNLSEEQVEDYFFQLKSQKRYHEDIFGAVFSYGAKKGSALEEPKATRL
Recorded log10 of IC50 for the following compounds
property-name: log10 of IC50 (log10 of the value in nM)

1. C=C(CC[C@@H](C)[C@H]1CC[C@@H]2C3=C(C(=O)C[C@@]21C)[C@@]1(C)CCC(=O)[C@@H](C)C1CC3)C(C)C(=O)OC (some centres unmarked) [Compound I-10] :: 3.20
2. C=C(CC[C@@H](C)C1CCC2C3=C(C(=O)C[C@@]21C)[C@@]1(C)CCC(=O)[C@@H](C)C1CC3O)C(C)C(=O)OC (stereo in doubt) [Compound I-6] :: 3.40
3. C=C(CC[C@@H](C)C1CCC2C3=C(C(=O)C[C@@]21C)[C@@]1(C)CCC(O)[C@@H](C)C1CC3O)C(C)C(=O)O (stereo in doubt) [Compound I-2] :: 4.20
4. C[C@H](C=C[C@H](C)[C@H](C)CO)[C@H]1CC[C@H]2C3=CCC4CC(=O)CC[C@]4(C)[C@H]3CC[C@]12C (stereo partly drawn) [Compound I-9, (25S)-26-hydroxy-ergosta-7,22-dien-3-one] :: 4.10
5. C=C(CC[C@@H](C)[C@H]1CC[C@H]2C3=C(C(=O)C[C@]12C)[C@@]1(C)CCC(=O)[C@@H](C)C1CC3)C(C)C(=O)OC (some centres unmarked) [Compound I-21] :: 3.18
